molecules and their reported GI50
# Test system: LXFL 529
# experimental_details: NCI tumour cell line growth inhibition, 48 h
Activity calls are given as the source filed them. No stated cut-off is given here; in the data, active = GI50 up to about 1.1 µM and inactive = higher. Non-standard residues stand in square brackets, D forms with d. Residues, ends and D or L forms follow the SMILES beside them. ξ: configuration not given here. *: point of attachment. NMeF = CN[C@@H](Cc1ccccc1)C(=O)O; NMeV = CN[C@H](C(=O)O)C(C)C; ξNMeV = CNC(C(=O)O)C(C)C; Boc = CC(C)(C)OC(=O)*; OBn = c1ccc(CO*)cc1

molecule | GI50
CC(C)N(C(=O)C12C3C4C1C1C4(C#N)C3C12C#N)C(C)C (centres undefined) | > 100 µM (inactive)
CN1C(=O)CN2C(Cl)(Cl)C2(c2ccccc2F)c2cc([N+](=O)[O-])ccc21 (centres undefined) | 58.1 µM (inactive)
C[C@]12CCC3[C@@H](CC[C@@H]4c5nonc5CC[C@]34C)C1C/C(=N/O)C2=O (some centres undefined) | 18.6 µM (inactive)
COc1ccc(/C=C2\CCC(CN(C)C)C2=O)cc1 (centres undefined) | 2.05 µM (inactive)
Cc1cc2c(ccc3c(C)cc(=O)oc32)o1 | > 100 µM (inactive)
O=C1c2ccccc2C(=O)c2c(O)c(O)cc(O)c21 [PURPURIN] | 37.2 µM (inactive)
O=C(N/C(=C/c1cccc([N+](=O)[O-])c1)c1nc2cc(Cl)ccc2[nH]1)c1ccccc1 | 12.6 µM (inactive)
CC1=C(c2ccccc2)C(c2ccccc2)=C(c2ccccc2)C2(c3ccccc3)C(=O)C(C)CN12 (centres undefined) | 43.8 µM (inactive)
Cc1c(O)c(=O)ccn1C1OC(CO)C(O)C1O (centres undefined) | > 100 µM (inactive)
O=[N+]([O-])c1cccc(C(O)/C(=N/O)c2nc3ccc(Cl)cc3nc2O)c1 (centres undefined) | > 100 µM (inactive)
O=C(/C=C/C1C(=O)NC(=O)NC1=O)CC(=O)C(=O)Nc1cc(Cl)c(Cl)cc1Cl | > 100 µM (inactive)
Clc1ccc(Nc2nc3ccccc3nc2-c2cccs2)cc1Cl | 38.9 µM (inactive)
CC(C)C(C(=O)N(C)[C@H](C(=O)N1CCC[C@H]1C(=O)N(C)[C@@H](Cc1ccccc1)C(=O)OCc1ccccc1)C(C)C)N(C)C(=O)[C@@H](NC(=O)OC(C)(C)C)C(C)C (some centres undefined) (Boc-V[ξNMeV][NMeV]P[NMeF]-OBn) | 15.1 µM (inactive)
COc1ccc2ccnc(Cc3ccc(OCc4ccccc4)c(OC)c3)c2c1 | 25.9 µM (inactive)
O=C(c1ccccc1)c1ccc2cccc(OC3OC(CO)C(O)C(O)C3O)c2n1 (centres undefined) | > 100 µM (inactive)
COC(=O)/C(=N\O)C(C(=O)C=C(C)C)C(=O)C(=O)Nc1ccccc1C (centres undefined) | > 100 µM (inactive)
O=C(O)CN(c1ccc(F)cc1)S(=O)(=O)c1ccccc1 | > 100 µM (inactive)
CCOC(=O)/C(C(=O)c1ccccc1)=C1/NCCN1C | > 100 µM (inactive)
COC(=O)C1=C(C(=O)OC)C2(C(=O)OC)OC1(OC)C(C1(C(=O)OC)C(C(=O)OC)=C1C(=O)OC)=C2C(=O)OC (centres undefined) | > 100 µM (inactive)
Cc1[nH]c(O)nc1C(=O)c1ccc(-n2ccnc2)cc1 | > 100 µM (inactive)
CNC(=O)N(C)/N=N/CCCl | > 100 µM (inactive)
Cc1ccc(C2C(Cl)C(=O)N2n2cnc3ccccc3c2=O)cc1 (centres undefined) | > 100 µM (inactive)
C=CC1=CSNN1 | > 100 µM (inactive)
C=CCC12CC(=O)CCC1CC(=O)C2 (centres undefined) | > 100 µM (inactive)

This collection of values is drawn from ChEMBL document CHEMBL1201862.
